- test summary: Rodent Pharmacokinetics - Rat PK
- Format: in vivo, male Sprague-Dawley rats
- condition summary: male, Sprague-Dawley, plasma, oral, 10 mg/kg
measurement label: bioavailability (%)

[P] CC(C)c1cncc(Nc2c(-c3ccc(-c4ccc(C5(C(=O)O)CC5)cc4)cn3)cnn2C)n1 [Example 27]
[Q] CC(C)Oc1cncc(Nc2c(-c3ccc(-c4ccc(C5(C(=O)O)CC5)cc4)cn3)cnn2C)n1.Cl [Example 20]
Given the listed items, does P or Q have the lesser reported bioavailability? Answer with the label corresponding to your selection.
Q

###

- test summary: Rodent Pharmacokinetics - Rat PK
- Assay type: in vivo, male Sprague-Dawley rats
- condition summary: male, Sprague-Dawley, plasma, intravenous, 1 mg/kg
measurement label: clearance (mL/min/kg)

[a] CC(C)c1cncc(Nc2c(-c3ccc(-c4ccc(C5(C(=O)O)CC5)cc4)cn3)cnn2C)n1 [Example 27]
[b] CC(C)Oc1cncc(Nc2c(-c3ccc(-c4ccc(C5(C(=O)O)CC5)cc4)cn3)cnn2C)n1.Cl [Example 20]
Sorting by clearance in descending order, would a or b appear first? Answer with the label corresponding to your selection.
a
(a: 4.23 mL/min/kg, b: 2.94 mL/min/kg)

###

- test summary: Rodent Pharmacokinetics - Mouse PK
- Type: in vivo, C57 mice
- condition summary: C57, plasma, oral, 10 mg/kg
measurement label: bioavailability (%)

CC(C)c1cncc(Nc2c(-c3ccc(-c4ccc(C5(C(=O)O)CC5)cc4)cc3)cnn2C)n1 [Example 26] | 30

[A] Cn1ncc(-c2ccc(-c3ccc(C4(C(=O)O)CC4)cc3)cn2)c1Nc1cncc(C(F)(F)F)n1 [Example 21]
[B] CC(C)c1cncc(Nc2c(-c3ccc(-c4ccc(C5(C(=O)O)CC5)cc4)cn3)cnn2C)n1 [Example 27]
Given the listed items, does A or B have the lesser reported bioavailability? Answer with the label corresponding to your selection.
A
(A: 24.8%, B: 40.8%)

###

- experimental target: LPAR1 (Homo sapiens (Human), UniProt Q92633)
- Sequence (Q92633 whole entry): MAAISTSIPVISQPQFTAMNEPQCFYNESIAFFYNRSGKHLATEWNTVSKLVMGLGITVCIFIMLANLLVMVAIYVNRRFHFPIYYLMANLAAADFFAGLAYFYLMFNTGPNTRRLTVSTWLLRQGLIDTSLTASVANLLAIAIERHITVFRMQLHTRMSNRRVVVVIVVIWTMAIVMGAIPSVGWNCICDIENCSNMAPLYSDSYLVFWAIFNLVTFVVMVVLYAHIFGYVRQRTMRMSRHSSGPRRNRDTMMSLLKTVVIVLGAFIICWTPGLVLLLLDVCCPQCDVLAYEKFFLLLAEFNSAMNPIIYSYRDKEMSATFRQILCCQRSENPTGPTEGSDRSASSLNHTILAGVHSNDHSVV
- test summary: LPAR1 Calcium Flux Assay
- Type: cell-based
- condition summary: U937 cells overexpressing human LPAR1, LPA-stimulated calcium, FLIPR
pIC50: −log10 of the molar value. Counter-ions that a name gives are not always drawn.
measurement label: pIC50

The following molecules have reported results that may help.
Cn1ncc(-c2ncc(-c3ccc(C4(C(=O)O)CC4)cc3)cc2F)c1Nc1cncc(C(C)(C)F)n1 [Example 4, Hydrochloride] | 7.78
Cn1ncc(-c2ccc(-c3ccc(C4(C(=O)O)CC4)c(C#N)c3)cn2)c1Nc1cncc(OC2CC2)n1 [Example 9, Hydrochloride] | 7.75
Cn1ncc(-c2ccc(-c3ccc(C4(C(=O)O)CC4)cc3)cn2)c1Nc1cncc(OC2CC2)n1 | 8.01

[a] COCc1cc(C2(C(=O)O)CC2)ccc1-c1ccc(-c2cnn(C)c2Nc2cncc(C(C)C)n2)nc1 [Example 14, Hydrochloride]
[b] CC(C)c1cncc(Nc2c(-c3ccc(-c4ccc(C5(C(=O)O)CC5)cc4)cn3)cnn2C)n1
Given the listed items, does a or b have the lesser reported pIC50? Answer with the label corresponding to your selection.
a

[A] CC(C)c1cncc(Nc2c(-c3ccc(-c4ccc(C5(C(=O)O)CC5)cc4CC#N)cn3)cnn2C)n1 [Example 15, Hydrochloride]
[B] CC(C)c1cncc(Nc2c(-c3cnc(-c4ccc(C5(C(=O)O)CC5)cc4)cn3)cnn2C)n1 [Example 19, Hydrochloride]
Given the listed items, does A or B have the lesser reported pIC50? Answer with the label corresponding to your selection.
B
